Just for reference, patent US8217063B2 is where these values come from.

This listing pairs compounds with measured MEC (minimum effective concentration).
# test target: recombinant guanylate cyclase reporter cell line (Rattus norvegicus, UniProt P20595)
# Construct: expressed in transfected cells; host or cells: CHO
# Sequence (P20595 whole entry): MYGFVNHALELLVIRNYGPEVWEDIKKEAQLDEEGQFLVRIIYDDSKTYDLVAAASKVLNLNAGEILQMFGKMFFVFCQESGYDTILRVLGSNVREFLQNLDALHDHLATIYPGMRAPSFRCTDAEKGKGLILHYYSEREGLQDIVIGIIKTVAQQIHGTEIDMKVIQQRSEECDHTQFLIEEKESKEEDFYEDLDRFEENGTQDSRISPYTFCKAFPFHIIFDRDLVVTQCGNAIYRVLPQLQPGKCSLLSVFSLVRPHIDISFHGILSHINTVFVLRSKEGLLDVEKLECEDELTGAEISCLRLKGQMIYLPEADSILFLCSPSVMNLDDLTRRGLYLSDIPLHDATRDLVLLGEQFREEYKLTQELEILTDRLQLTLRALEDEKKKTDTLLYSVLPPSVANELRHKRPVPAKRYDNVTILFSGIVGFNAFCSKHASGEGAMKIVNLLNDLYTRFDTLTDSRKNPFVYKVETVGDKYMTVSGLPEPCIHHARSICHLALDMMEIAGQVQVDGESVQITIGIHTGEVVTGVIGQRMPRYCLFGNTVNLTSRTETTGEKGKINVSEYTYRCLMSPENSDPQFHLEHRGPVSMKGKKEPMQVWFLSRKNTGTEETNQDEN
# Sequence (P19686 whole entry partner): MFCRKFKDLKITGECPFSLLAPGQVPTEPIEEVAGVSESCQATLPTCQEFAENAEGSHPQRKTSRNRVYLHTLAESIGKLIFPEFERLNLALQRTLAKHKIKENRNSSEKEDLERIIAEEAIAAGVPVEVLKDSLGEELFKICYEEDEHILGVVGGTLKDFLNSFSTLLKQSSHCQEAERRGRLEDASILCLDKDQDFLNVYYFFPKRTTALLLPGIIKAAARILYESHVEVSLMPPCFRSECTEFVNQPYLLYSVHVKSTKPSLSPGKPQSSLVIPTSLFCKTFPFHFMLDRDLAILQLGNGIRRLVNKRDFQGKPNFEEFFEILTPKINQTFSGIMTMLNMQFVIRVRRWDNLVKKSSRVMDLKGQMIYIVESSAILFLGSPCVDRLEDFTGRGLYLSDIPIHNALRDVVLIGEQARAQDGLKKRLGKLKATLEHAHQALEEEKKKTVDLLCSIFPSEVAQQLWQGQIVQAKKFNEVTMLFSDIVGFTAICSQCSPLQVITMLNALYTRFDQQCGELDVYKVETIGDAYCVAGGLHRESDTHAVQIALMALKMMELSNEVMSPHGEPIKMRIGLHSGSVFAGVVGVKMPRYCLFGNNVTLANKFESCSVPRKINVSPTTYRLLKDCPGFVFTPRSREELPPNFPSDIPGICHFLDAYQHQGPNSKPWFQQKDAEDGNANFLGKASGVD
# assay protocol: sGC-activating activity in the CHO reporter cell in vitro
# Assay type: cell-based
Write the answer as a number in nM, unit excluded.

Q: Fill blank: measured MEC (minimum effective concentration) of the compound CC1OCCN(CCCCCOc2ccccc2/C=C/C(CCc2ccc(C(=O)O)cc2)Cc2ccc(C(=O)O)cc2)C1=O (centres unmarked) is ____.
Ans: 1

Q: Fill blank: measured MEC (minimum effective concentration) of the compound O=C(O)c1ccc(CCC(/C=C/c2ccccc2OCCCCCN2CCCCC2=O)Cc2ccc(C(=O)O)cc2)cc1 (racemic) is ____.
Ans: 1

Q: Fill blank: measured MEC (minimum effective concentration) of the compound O=C(O)c1ccc(CCC(/C=C/c2ccccc2OCCN2CCOC2=O)Cc2ccc(C(=O)O)cc2)cc1 (racemic) is ____.
Ans: 100

Q: Fill blank: measured MEC (minimum effective concentration) of the compound O=C(O)c1ccc(CCC(/C=C/c2cc(F)ccc2OCCCN2CCCC2=O)CCc2ccc(C(=O)O)cc2)cc1 is ____.
Ans: 3

Q: Fill blank: measured MEC (minimum effective concentration) of the compound O=C(O)c1ccc(CCC(/C=C/c2ccccc2OCCCN2CCCC2=O)Cc2ccc(C(=O)O)cc2)cc1 (single isomer, unassigned) is ____.
Ans: 1

Next:
Q: Fill blank: measured MEC (minimum effective concentration) of the compound O=C(O)c1ccc(CCC(/C=C/c2ccccc2OCCCN2CCCC2=O)CCc2ccc(C(=O)O)cc2)cc1 is ____.
Ans: 3

Q: Fill blank: measured MEC (minimum effective concentration) of the compound O=C(O)c1ccc(CCC(/C=C/c2ccccc2OCCCN2CCOCC2=O)Cc2ccc(C(=O)O)cc2)cc1 (single isomer, unassigned) is ____.
Ans: 2

Q: Fill blank: measured MEC (minimum effective concentration) of the compound O=C(O)c1ccc(CCC(/C=C/c2ccccc2OCCCCCN2CCOC2=O)Cc2ccc(C(=O)O)cc2)cc1 (racemic) is ____.
Ans: 1

Q: Fill blank: measured MEC (minimum effective concentration) of the compound O=C(O)c1ccc(CCC(/C=C/c2cc(F)ccc2OCCCN2CCCC2=O)Cc2ccc(C(=O)O)cc2)cc1 (single isomer, unassigned) is ____.
Ans: 3

Q: Fill blank: measured MEC (minimum effective concentration) of the compound CN1CCCN(CCCCCOc2ccccc2/C=C/C(CCc2ccc(C(=O)O)cc2)Cc2ccc(C(=O)O)cc2)C1=O (racemic) is ____.
Ans: 3
